# maps each entry to its melting point

# count of solved cases: 5
CCC(CCN=C(O)C(Br)=C(Br)C(=O)O)c1ccccc1 (stereo unspecified)    71 to 73 °C
N#CNc1ccccc1-c1ccc(Cl)cc1    106 to 107 °C
BrC(Br)c1nccnc1C(Br)Br    167 to 170 °C
CSCc1ccc(NC(=O)/C=C/c2cnn(C)c2-c2ccc(SC)cc2)cc1    145 to 146 °C
N#Cc1cc(-n2cccc2)cnc1Cl    144 to 146 °C

For the next question, use this molecule.
Exercise: Param item = O=c1c2cccnc2c(-c2ccccc2)cn1Cc1ccncc1 ; retrieve measured melting point.
Key: 200 °C
